# Tested on: L1210 leukemia ip in BDF1 mice, survival T/C
# ASSAY: NCI In Vivo Anticancer Drug Screen. Data for tumor model L1210 Leukemia (intraperitoneal) in B6D2F1 (BDF1) mice
# CONDITION INFO: endpoint: mean survival time; dose: 100.0 mg/kg/injection; schedule: Q01DX001 (ip); vehicle: saline
Inconclusive results and toxic doses are left out. Cut-off read from the data, not from the text of the source: active = T/C of 150% or more; inactive = T/C below 125%.
// one of active, inactive, no free text

Solved cases (8 shown):
What was the test verdict on CC1(C)N=C(N)N=C(N)N1c1cccc(/C=C/C=C/c2cccc([N+](=O)[O-])c2)c1 ? inactive

State the result this test recorded for COC(=O)c1cc(NS(=O)(=O)c2ccc(N)cc2)cc(C(=O)OC)c1 . inactive

Answer briefly: the call reported for CCOC(=O)CC(C(=O)OCC)N1CCCCC1 (configuration not stated) in this assay. inactive

Recorded call for CSc1nc(N)nc2c1ncn2C1OC(CO)CC1O (configuration not stated) ? inactive

Record lookup: outcome of this test for C=C1CCC2CCCN2C1=O (configuration not stated) ? inactive

Called result for CCOC(=O)C(CC(C)C)NP(=O)(CCl)N(CCCl)CCCl (configuration not stated) inactive

Which outcome was assigned to CC(C)(C)CC(C)(C)N(CSc1ccc(Br)cc1)CSc1ccc(Br)cc1 in this test? inactive

What is the recorded call for this compound in the test? C/C(CCC(=O)O)=N/Nc1nnc(N/N=C(/C)CCC(=O)O)c2ccccc12 inactive

Consider the record given below.
Identify the outcome logged in this assay for the compound shown: COc1cc(C(=O)COC(C)=O)cc(OC)c1OC(C)=O inactive

Hey, just so you know, these numbers are from PubChem BioAssay AID248.
